test: Inhibition of recombinant GGT1 (unknown origin) using GGPP as substrate preincubated for 5 mins followed by protein addition measured over 20 mins by fluorescence assay
Observed property: IC50 (µM)

In: # query: IC50 of entry "CSCCc1c(-c2cccnc2)nn(-c2ccc(Cl)c(Cl)c2)c1OCCCC(=O)N[C@@H](Cc1cccnc1)C(N)=O"
Out: 11.6

I: COc1ccc(C[C@H](NS(C)(=O)=O)C(=O)NCCCOc2c(CCSC)c(-c3cccnc3)nn2-c2ccc(Cl)c(Cl)c2)cc1
II: CSCCc1c(-c2cccnc2)nn(-c2ccc(Cl)c(Cl)c2)c1OCCCC(=O)N[C@@H](Cc1ccc(F)cc1)C(N)=O
III: CSCCc1c(-c2cccnc2)nn(-c2ccc(Cl)c(Cl)c2)c1OCCCNC(=O)[C@H](Cc1ccc(F)cc1)NS(C)(=O)=O
In: Arrange the 3 compounds from largest to smallest IC50. Would you mind listing the labels in the order requested?
Out: III, I, II
(III: 19.7 µM, I: 9.9 µM, II: 2.4 µM)
